biological target: VTCN1, Q7Z7D3
Sequence (Q7Z7D3 whole entry): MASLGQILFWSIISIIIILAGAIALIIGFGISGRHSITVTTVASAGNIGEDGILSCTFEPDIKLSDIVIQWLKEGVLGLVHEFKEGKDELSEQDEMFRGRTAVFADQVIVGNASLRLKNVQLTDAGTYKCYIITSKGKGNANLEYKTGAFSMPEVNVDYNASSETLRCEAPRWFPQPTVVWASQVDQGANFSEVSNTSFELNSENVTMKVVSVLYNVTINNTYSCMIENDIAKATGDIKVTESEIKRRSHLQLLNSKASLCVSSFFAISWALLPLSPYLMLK
property: binding in a display sort

design_606_b60ff77f-1541-4e5f-8260-46d5e5f6b85e_1318_dldesign_0_cycle1_af2pred (protein) DVAAALAAAKAAAAAKMAEVKKYGAETAEAVKDAIDMGNIYGAGSLAEVMVGPEAGKIAKAAAEAAAKARELAAKA
not found (inactive)
design_597_f3dcd2b3-c7aa-4b15-88bc-bbb8d01a18cd_430_dldesign_0_cycle1_af2pred (protein) AVKEKLERAKKYAEETKKLAKELKKNPKFKKTAEEIEKEAEKVLEEAKKAAEKGDAEAVGEKATELRVLKTAAEQLLKAAK
not found (inactive)
design_604_3e0b3014-b333-46f1-8adc-d7f0bf8048fa_2314_dldesign_0_cycle1_af2pred (protein) EKEKRKEAIEKAEKVSTRIAKDIDTPEAKKIEELTKEAAEKALENVDNPEEVVKIMKEAAEEAAKDPEMEAVALVWKNAADFIK
not found (inactive)
